- Tested on: rice (Oryza sativa)
- EXPERIMENT DESCRIPTION: Test B flood test
- Format: in vivo
- ASSAY SETUP: Rate 125 g/ha, Postemergence section (flood test species)
Collected Rice plant response rating values appear next to each entry.

| SMILES ENTRY | Rice plant response rating |
| --- | --- |
| Cc1cnc(-n2ccc(C(F)(F)F)n2)nc1Cc1cccc(OC(F)(F)F)c1 | 6 |
| Cc1cnc(-n2cnc(C(F)(F)F)c2)nc1Cc1cccc(C(F)(F)F)c1 | 6 |
| Cc1cnc(-n2cnc(C(F)(F)F)n2)nc1C(=O)c1cccc(OC(F)(F)F)c1 | 1 |
| CCc1cnc(-n2ccc(C(F)(F)F)n2)nc1C(=O)c1cccc(C#N)c1 | 0 |
| N#Cc1ccc(-c2nccc(C(=O)c3cccc(C(F)(F)F)c3)n2)cc1 | 0 |

###

Overview of reported Plant response rating, Bedstraw across a group of compounds:
- Test system: bedstraw (Galium aparine)
- EXPERIMENT DESCRIPTION: Test B pre-/postemergence
- Format: in vivo
- ASSAY SETUP: Rate 250 g/ha, Preemergence

| SMILES ENTRY | Plant response rating, Bedstraw |
| --- | --- |
| Cc1cnc(-c2ccc(F)c(Cl)c2)nc1Cc1cccc(C(F)(F)F)c1 | 2 |
| Cc1cnc(-c2ccc(C(F)(F)F)cc2)nc1Cn1nc(C(F)(F)F)cc1C | 5 |
| Cc1cnc(-c2ccc(C(F)(F)F)cc2)nc1Cc1cccc(OC(F)(F)F)c1 | 8 |

###

Below: a set of entries, each annotated with reported Crabgrass plant response rating.
- Tested on: crabgrass (Digitaria sanguinalis)
- EXPERIMENT DESCRIPTION: Test B pre-/postemergence
- Assay type: in vivo
- ASSAY SETUP: Rate 62 g/ha, Preemergence

| SMILES ENTRY | Crabgrass plant response rating |
| --- | --- |
| Cc1cnc(-c2ccc(C(F)(F)F)cc2)nc1Cn1ccc(C(F)(F)F)n1 | 9 |
| Cc1cnc(-n2ccc(C(F)(F)F)n2)nc1Cc1cccc(C(F)(F)F)c1 | 9 |
| CCc1cnc(-n2cnc(C(F)(F)F)n2)nc1Cc1cccc(OC(F)(F)F)c1 | 6 |

###

- Tested on: rape (Brassica napus)
- EXPERIMENT DESCRIPTION: Test B pre-/postemergence
- Assay type: in vivo
- ASSAY SETUP: Rate 125 g/ha, Preemergence
MEASURE NAME: Rape plant response rating

| MOLECULE | OBSERVED RESULT |
| --- | --- |
| Cc1cnc(-c2ccc(C(F)(F)F)cc2)nc1Cn1nc(C(F)(F)F)cc1C | 6 |
| CCc1cnc(-n2ccc(C(F)(F)F)n2)nc1Cc1cccc(OC(F)(F)F)c1 | 9 |
| COC(=O)C(c1cccc(C(F)(F)F)c1)c1nc(-c2ccc(C(F)(F)F)cc2)ncc1C (racemic) | 0 |
| Cc1cnc(-c2ccccc2)nc1Cn1ccc(C(F)(F)F)n1 | 0 |
| Cc1cnc(-c2cccc(C(F)(F)F)c2)nc1Cc1cccc(C#N)c1 | 0 |
| Cc1cnc(-n2ccc(C(F)(F)F)n2)nc1Cc1cccc(OC(F)(F)F)c1 | 10 |
| Cc1cnc(-c2ccccc2F)nc1Cc1cccc(C(F)(F)F)c1 | 0 |
| COc1cnc(-n2ccc(C(F)(F)F)n2)nc1Cc1cccc(C(F)(F)F)c1 | 0 |
| Cc1cnc(-c2ccc(C(F)(F)F)cc2)nc1Cc1cccc(C#N)c1 | 10 |
| Cc1cnc(-c2ccc(Cl)cc2F)nc1Cc1cccc(C#N)c1 | 0 |
| CCc1cnc(-n2cnc(C(F)(F)F)n2)nc1Cc1cccc(OC(F)(F)F)c1 | 10 |
| Cc1cnc(-c2ccccc2F)nc1Cc1cccc(C#N)c1 | 0 |
| Cc1cnc(-c2ccc(C#N)cc2)nc1Cc1cccc(C#N)c1 | 0 |

###

- Test system: wheat (Triticum aestivum)
- EXPERIMENT DESCRIPTION: Test B pre-/postemergence
- Type: in vivo
- ASSAY SETUP: Rate 250 g/ha, Preemergence
- Experimental: […] At the same time, these crop and weed species were also treated with postemergence applications of test chemicals formulated in the same manner. […] Treated plants and controls were maintained in a greenhouse for twelve to sixteen days, after which all species were compared to controls and visually evaluated. […]
Measured Plant response rating, Wheat, listed per entry.

| MOLECULE | EXPERIMENTAL SYSTEM | Plant response rating, Wheat |
| --- | --- | --- |
| Cc1cnc(-n2cnc(C(F)(F)F)c2)nc1C(=O)c1cccc(OC(F)(F)F)c1 | wheat (Triticum aestivum) | 3 |
| Cc1cnc(-c2ccc(F)c(Cl)c2)nc1Cc1cccc(C(F)(F)F)c1 | wheat (Triticum aestivum) | 2 |
| Cc1cnc(-c2ccc(C(F)(F)F)cc2)nc1C(C)c1cccc(C(F)(F)F)c1 (racemic) | wheat (Triticum aestivum) | 0 |
| Cc1cnc(-c2ccc(C(F)(F)F)cc2)nc1C(C#N)c1cccc(C(F)(F)F)c1 (racemic) | wheat (Triticum aestivum) | 3 |
| Cc1cnc(-n2ccc(C(F)(F)F)n2)nc1C(=O)c1cccc(C(F)(F)F)c1 | wheat (Triticum aestivum) | 3 |
| Cc1cnc(-n2cnc(C(F)(F)F)c2)nc1C(=O)c1cccc(C(F)(F)F)c1 | wheat (Triticum aestivum) | 4 |
| Cc1cnc(-c2ccc(C(F)(F)F)cc2)nc1Cn1ccc(C(F)(F)F)n1 | wheat (Triticum aestivum) | 5 |
| Cc1cnc(-n2ccc(C(F)(F)F)n2)nc1C(=O)c1ccc(C(F)(F)F)cc1 | wheat (Triticum aestivum) | 0 |
| Cc1cnc(-c2ccc(C(F)(F)F)cc2)nc1Cn1nc(C(F)(F)F)cc1C | wheat (Triticum aestivum) | 0 |
| COC(=O)C(c1cccc(C(F)(F)F)c1)c1nc(-c2ccc(C(F)(F)F)cc2)ncc1C (racemic) | wheat (Triticum aestivum) | 0 |
| Cc1cnc(-c2ccccc2)nc1Cn1ccc(C(F)(F)F)n1 | wheat (Triticum aestivum) | 0 |
| Cc1cnc(-c2ccc(C(F)(F)F)cc2)nc1Cn1cc(Br)cn1 | wheat (Triticum aestivum) | 0 |
| Cc1cnc(-n2ccc(C(F)(F)F)n2)nc1Cn1ccc(C(F)(F)F)n1 | wheat (Triticum aestivum) | 3 |

###

- Tested on: pigweed (Amaranthus retroflexus)
- EXPERIMENT DESCRIPTION: Test B pre-/postemergence
- Format: in vivo
- ASSAY SETUP: Rate 125 g/ha, Postemergence

| SMILES ENTRY | Redroot pigweed plant response rating |
| --- | --- |
| Cc1cnc(-c2ccc(F)c(Cl)c2)nc1Cc1cccc(C#N)c1 | 3 |
| CCc1cnc(-n2cnc(C(F)(F)F)n2)nc1Cc1cccc(OC(F)(F)F)c1 | 8 |
| O=C(c1cccc(C(F)(F)F)c1)c1ccnc(-n2ccc(C(F)(F)F)n2)n1 | 2 |
| Cc1cnc(-c2ccccc2F)nc1Cc1cccc(C#N)c1 | 1 |
| Cc1cnc(-n2cnc(C(F)(F)F)n2)nc1Cc1cccc(C(F)(F)F)c1 | 10 |
| Cc1cnc(-c2ccc(C#N)cc2)nc1Cc1cccc(C(F)(F)F)c1 | 9 |
| Cc1cnc(-n2ccc(C(F)(F)F)n2)nc1Cc1cccc(OC(F)(F)F)c1 | 9 |
| Cc1cnc(-n2ccc(C(F)(F)F)n2)nc1Cn1ccc(C(F)(F)F)n1 | 10 |
| CCc1cnc(-n2cnc(C(F)(F)F)c2)nc1C(=O)c1cccc(OC(F)(F)F)c1 | 8 |
| Cc1cnc(-c2ccc(C(F)(F)F)cc2)nc1C(=O)c1cccc(OC(F)(F)F)c1 | 9 |

###

Listed next: entries and their corresponding Blackgrass plant response rating.
- Tested on: blackgrass (Alopecurus myosuroides)
- EXPERIMENT DESCRIPTION: Test B pre-/postemergence
- Assay type: in vivo
- ASSAY SETUP: Rate 125 g/ha, Postemergence
MEASURE NAME: Blackgrass plant response rating

| SMILES ENTRY | EXPERIMENTAL SYSTEM | MEASURE NAME | OBSERVED RESULT |
| --- | --- | --- | --- |
| CCc1cnc(-n2ccc(C(F)(F)F)n2)nc1C(=O)c1cccc(C#N)c1 | blackgrass (Alopecurus myosuroides) | Blackgrass plant response rating | 5 |
| O=C(c1cccc(C(F)(F)F)c1)c1ccnc(-c2ccc(C(F)(F)F)cc2)n1 | blackgrass (Alopecurus myosuroides) | Blackgrass plant response rating | 0 |
| CCc1cnc(-n2ccc(C(F)(F)F)n2)nc1C(=O)c1cccc(C(F)(F)F)c1 | blackgrass (Alopecurus myosuroides) | Blackgrass plant response rating | 3 |

###

- Test system: sugar beet (Beta vulgaris)
- EXPERIMENT DESCRIPTION: Test B pre-/postemergence
- Type: in vivo
- Parameters: key: 0 is no effect; 10 is complete control
- ASSAY SETUP: Rate 125 g/ha, Postemergence

| MOLECULE | EXPERIMENTAL SYSTEM | Plant response rating, Sugarbeets |
| --- | --- | --- |
| Cc1cnc(-c2ccc(C(F)(F)F)cc2)nc1Cc1cccc(C(F)(F)F)c1 [Example 1] | sugar beet (Beta vulgaris) | 10 |
| Cc1cnc(-c2ccc(C(F)(F)F)cc2)nc1Cn1cnc(C(F)(F)F)c1 [Compound 10] | sugar beet (Beta vulgaris) | 8 |
| Cc1cnc(-c2ccc(C(F)(F)F)cc2)nc1Cn1nc(C(F)(F)F)cc1C [Compound 13] | sugar beet (Beta vulgaris) | 10 |
| Cc1cnc(-c2ccc(C(F)(F)F)cc2)nc1Cn1cnc(C(F)(F)F)n1 [Compound 11] | sugar beet (Beta vulgaris) | 10 |
| CCc1cnc(-c2ccc(C(F)(F)F)cc2)nc1Cc1cccc(C(F)(F)F)c1 [Compound 22] | sugar beet (Beta vulgaris) | 10 |
